- Tested on: SF-539
- procedure_details: NCI tumour cell line growth inhibition, 48 h
Activity calls are given as the source filed them. No stated cut-off is given here; in the data, active = GI50 up to about 1.1 µM and inactive = higher.
value_kind: GI50

Previously resolved entries follow.
O=[N+]([O-])c1cc2[nH]nnc2c2nonc12 :: 22.8 µM (inactive)
O=C1C(c2ccc([N+](=O)[O-])cc2)=C(Cl)C(=O)c2c(O)cccc21 :: 20.2 µM (inactive)
CCOC(=O)Cc1csc2[n+]1C(=O)/C(=C/c1cccc(OC)c1O)S2 :: 60.8 µM (inactive)
C[Si](C)(C)/C(Br)=C\CCN1C(=O)CCC1O (configuration not stated) :: > 100 µM (inactive)
COC(=O)C1=Cc2cc3c(cc2[C@H](c2ccc4c(c2)OCO4)C1C(=O)OC)OCO3 (some centres not stated) :: > 100 µM (inactive)

GI50 for COC(=O)CC1CN(C(=O)OCc2ccccc2)C(C)(C)O1 (configuration not stated) ? > 100 µM (inactive)

Same question for COC(=O)C1=C(C(=O)OC)C2CCC1CC2=O (configuration not stated) please. > 100 µM (inactive)

// repeat for "CSc1cccc(NC(=O)OC2CCCCCCCCCCC2)c1" and report 24.4 µM (inactive)

Next compound: "CCCCCCCCCCCC[C@H](O)[C@H]1CC[C@H]([C@H](O)CCCC[C@H](O)CCCCC[C@@H](O)CC2=C[C@H](C)OC2=O)O1" 15.3 µM (inactive)

Next: CC1=C(c2ccccc2)NC(=S)C(C)C(c2ccccc2)=N1 (configuration not stated) 16.3 µM (inactive)

Entry "CC1=C(C(=O)N(C(C)C)C(C)C)CC(C(=O)N(C(C)C)C(C)C)=C(C)N1" please > 100 µM (inactive)
